Each recorded value in this set is attributed to patent US20250188092A1.

Tested on: DPX2 cells
Conditions: 6.25 μM, 24 h
Give DPX2 Viability @ 6.25 μM for every item shown.
Report the value in % with no unit label.

Q: Looking for the measured DPX2 Viability @ 6.25 μM of CO[C@H]1/C=C/O[C@@]2(C)Oc3c(C)c(O)c4c(=O)c(c5oc6cc(N7CCN(C(=O)c8ccc9occc9c8)CC7)cc(C)c6nc-5c4c3C2=O)NC(=O)/C(C)=C\C=C\[C@H](C)[C@H](O)[C@@H](C)[C@@H](O)[C@@H](C)[C@H](OC(C)=O)[C@@H]1C [Compound 29c] , can you help?
Ans: 121

Q: Next molecule: CO[C@H]1/C=C/O[C@@]2(C)Oc3c(C)c(O)c4c(=O)c(c5oc6cc(C)cc(N7CCN(C(=O)c8ccc9occc9c8)CC7)c6nc-5c4c3C2=O)NC(=O)/C(C)=C\C=C\[C@H](C)[C@H](O)[C@@H](C)[C@@H](O)[C@@H](C)[C@H](OC(C)=O)[C@@H]1C [Compound 30h]
Ans: 100

Q: // query: CO[C@H]1/C=C/O[C@@]2(C)Oc3c(C)c(O)c4c(=O)c(c5oc6cc(N7CCC(C(=O)O)CC7)cc(C)c6nc-5c4c3C2=O)NC(=O)/C(C)=C\C=C\[C@H](C)[C@H](O)[C@@H](C)[C@@H](O)[C@@H](C)[C@H](OC(C)=O)[C@@H]1C [Compound 29f]
Ans: 126

Q: Next entry: CO[C@H]1/C=C/O[C@@]2(C)Oc3c(C)c(O)c4c(=O)c(c5oc6cc(N7CCC(C(=O)O)CC7)cc(OCc7ccc(CN8CCN(C)CC8)cc7)c6nc-5c4c3C2=O)NC(=O)/C(C)=C\C=C\[C@H](C)[C@H](O)[C@@H](C)[C@@H](O)[C@@H](C)[C@H](OC(C)=O)[C@@H]1C [Compound 17q]
Ans: 100

Q: Try this molecule too: CO[C@H]1/C=C/O[C@@]2(C)Oc3c(C)c(O)c4c(=O)c(c5oc6cccc(OCc7ccc(CN8CCN(C(=O)CN9CCOCC9)CC8)cc7)c6nc-5c4c3C2=O)NC(=O)/C(C)=C\C=C\[C@H](C)[C@H](O)[C@@H](C)[C@@H](O)[C@@H](C)[C@H](OC(C)=O)[C@@H]1C [Compound 16c]
Ans: 96

Q: Please give the result for CO[C@H]1/C=C/O[C@@]2(C)Oc3c(C)c(O)c4c(=O)c(c5oc6cc(N7CCN(C(=O)c8ccncc8)CC7)cc(OCc7ccc(CN8CCOCC8)cc7)c6nc-5c4c3C2=O)NC(=O)/C(C)=C\C=C\[C@H](C)[C@H](O)[C@@H](C)[C@@H](O)[C@@H](C)[C@H](OC(C)=O)[C@@H]1C [Compound 17n] too.
Ans: 102

Q: Try this molecule next: CO[C@H]1/C=C/O[C@@]2(C)Oc3c(C)c(O)c4c(=O)c(c5oc6cc(N7CCN(CC(C)C)CC7)cc(O)c6nc-5c4c3C2=O)NC(=O)/C(C)=C\C=C\[C@H](C)[C@H](O)[C@@H](C)[C@@H](O)[C@@H](C)[C@H](OC(C)=O)[C@@H]1C [RLZ, rifalazil, reference compound]
Ans: 108

Q: Can you handle `CO[C@H]1/C=C/O[C@@]2(C)Oc3c(C)c(O)c4c(=O)c(c5oc6cc(N7CCN(CC(C)C)CC7)cc(OCCCCN7CCN(C(=O)Cn8ccnc8)CC7)c6nc-5c4c3C2=O)NC(=O)/C(C)=C\C=C\[C@H](C)[C@H](O)[C@@H](C)[C@@H](O)[C@@H](C)[C@H](OC(C)=O)[C@@H]1C` next?
Ans: 104

Q: Same for CO[C@H]1/C=C/O[C@@]2(C)Oc3c(C)c(O)c4c(=O)c(c5oc6cc(C)cc(N7CCN(C(=O)c8cccc(-c9ccccn9)c8)CC7)c6nc-5c4c3C2=O)NC(=O)/C(C)=C\C=C\[C@H](C)[C@H](O)[C@@H](C)[C@@H](O)[C@@H](C)[C@H](OC(C)=O)[C@@H]1C [Compound 30g]
Ans: 99

Q: Would you kindly repeat that for CO[C@H]1/C=C/O[C@@]2(C)Oc3c(C)c(O)c4c(=O)c(c5oc6cc(N7CCN(CC(=O)O)CC7)cc(OCc7ccc(CN8CCOCC8)cc7)c6nc-5c4c3C2=O)NC(=O)/C(C)=C\C=C\[C@H](C)[C@H](O)[C@@H](C)[C@@H](O)[C@@H](C)[C@H](OC(C)=O)[C@@H]1C [Compound 17i] ?
Ans: 106

Q: What do you get for CO[C@H]1/C=C/O[C@@]2(C)Oc3c(C)c(O)c4c(=O)c(c5oc6cc(N7CCN(CC(C)C)CC7)cc(OCc7ccc(CN8CCN(C(=O)Cn9ccnc9)CC8)cc7)c6nc-5c4c3C2=O)NC(=O)/C(C)=C\C=C\[C@H](C)[C@H](O)[C@@H](C)[C@@H](O)[C@@H](C)[C@H](OC(C)=O)[C@@H]1C [Compound 17c] ?
Ans: 102

Q: Next up: CO[C@H]1/C=C/O[C@@]2(C)Oc3c(C)c(O)c4c(=O)c(c5oc6cc(N7CCN(CC(C)C)CC7)cc(OCc7ccc(CN8CCN(C(=O)CN9CCOCC9)CC8)cc7)c6nc-5c4c3C2=O)NC(=O)/C(C)=C\C=C\[C@H](C)[C@H](O)[C@@H](C)[C@@H](O)[C@@H](C)[C@H](OC(C)=O)[C@@H]1C [Compound 17d]
Ans: 104

Q: How about CO[C@H]1/C=C/O[C@@]2(C)Oc3c(C)c(O)c4c(=O)c(c5oc6cc(N7CCN(CC(C)C)CC7)cc(OCc7cccc(CN8CCN(C(=O)Cn9ccnc9)CC8)c7)c6nc-5c4c3C2=O)NC(=O)/C(C)=C\C=C\[C@H](C)[C@H](O)[C@@H](C)[C@@H](O)[C@@H](C)[C@H](OC(C)=O)[C@@H]1C [Compound 12c] ?
Ans: 107
